Target: human alpha-thrombin (Homo sapiens, UniProt P00734;P00734 315-363;364-622)
Assay: ITC; ITC in PBS (10 mM phosphate, 2.7 mM KCl, 137 mM NaCl), pH 7.4, 22 °C; ODN 25 or 100 µM into thrombin 2.5 or 10 µM
Give measured pKd for each item. Keep answers brief.
Give bare numbers, as −log10 of the molar value.

Q) Value lookup for pKd; key = AA (structured_DNA, 3'-3' phosphodiester inversion joins the two listed segments covalently (both written 5' to 3'); one molecule, not a duplex) DNA 1: GGTTGGTGTGGTTGGA DNA 2: GGTTGGTGTGGTTGGA
A) 8.00

Kindly consider the entry below.
Q) Value lookup for pKd; key = GGTTGGTGTGGTTGG (structured_DNA) [TBA]
A) 8.10
